Protocol: Displacement of [3H]NMS from rat M3'(3C)-Xa receptor expressed in african green monkey COS7 cells
Assay type: cell-based
Run parameters: cos-7
Endpoint: Ki

1) C[N+](C)(C)CCOC(N)=O 23.1 µM

Every entry's value here was drawn from ChEMBL document CHEMBL1156485.
